Just for reference, patent US20210292340A1 is where these values come from.

- System: Jurkat (FADD−/−) cells
- experimental-protocol: Inhibition of TNF-induced programmed Jurkat (FADD−/−) cell necrosis (Cell Titer-Glo)
- Type: cell-based, human
- study-conditions: Homo sapiens, Jurkat, 20 h, TNF 10 ng/mL, intracellular ATP level, read-out: Cellular IC50 (M) Jurkat (FADD−/−)
property-label: IC50 (M)
The answer is to be given in M; state only the numeric part.

[[record]]
compound = "CN1C(=O)[C@@H](NC(=O)c2noc(Cc3ccccc3)n2)COc2cc3nccnc3cc21 [RIP1-132]"
number = "4.57e-09"

[[record]]
compound = "CN1C(=O)[C@@H](NC(=O)c2nnc(Cc3ccccc3)[nH]2)COc2cc3occc3cc21 [RIP1-127]"
number = "3.28e-09"

[[record]]
compound = "CN1C(=O)[C@@H](NC(=O)c2nnn(Cc3ccccc3)n2)CSc2cc3c(ccn3C)cc21 [RIP1-058]"
number = "2.53e-10"

[[record]]
compound = "CN1C(=O)[C@@H](NC(=O)c2noc(Cc3ccccc3)n2)COc2cc3occc3cc21 [RIP1-123]"
number = "1.33e-09"

[[record]]
compound = "CN1C(=O)[C@@H](NC(=O)c2n[nH]c(Cc3ccccc3)n2)COc2ccccc21 [GSK2982772, reference compound]"
number = "9.7e-10"

[[record]]
compound = "COc1ncnc2cc3c(cc12)N(C)C(=O)[C@@H](NC(=O)c1n[nH]c(Cc2ccccc2F)n1)CO3 [RIP1-160]"
number = "2.2e-09"


For record CN1C(=O)[C@@H](NC(=O)c2n[nH]c(Cc3ccccc3F)n2)COc2cc3ncoc3cc21 [RIP1-206] the listed IC50 is 8.18e-10

====

- Tested on: Jurkat (FADD−/−) cells
- experimental-protocol: Inhibition of TNF-induced programmed Jurkat (FADD−/−) cell necrosis (Cell Titer-Glo)
- Type: cell-based, human
- study-conditions: Homo sapiens, Jurkat, 20 h, TNF 10 ng/mL, intracellular ATP level, read-out: Cellular IC50 (M) Jurkat (FADD−/−)
property-label: log10 IC50 (log10 of the value in M)
The common logarithm of IC50 in M is what is listed.

Record excerpt, results attached:
[[record]]
compound = "CN1C(=O)[C@@H](NC(=O)c2n[nH]c(Cc3c(F)cccc3F)n2)COc2cc3ncoc3cc21 [RIP1-183]"
number = -8.21

[[record]]
compound = "CN1C(=O)[C@@H](NC(=O)c2ncn(Cc3ccccc3)n2)COc2cc3[nH]nnc3cc21 [RIP1-136]"
number = -8.03

[[record]]
compound = "Cc1nc2cc3c(cc2[nH]1)OC[C@H](NC(=O)c1cn(Cc2ccccc2)nn1)C(=O)N3C [RIP1-063]"
number = -7.34

[[record]]
compound = "CN1C(=O)[C@@H](NC(=O)c2n[nH]c(Cc3ccccc3F)n2)COc2cc3nccnc3cc21 [RIP1-208]"
number = -8.83


# context switch: different compound, same log10 IC50
The measured log10 IC50 associated with CN1C(=O)[C@@H](NC(=O)c2cc(Cc3ccccc3)on2)COc2cc3occc3cc21 [RIP1-126] reads -8.58

====

- Test system: Jurkat (FADD−/−) cells
- experimental-protocol: Inhibition of TNF-induced programmed Jurkat (FADD−/−) cell necrosis (Cell Titer-Glo)
- Assay type: cell-based, human
- study-conditions: Homo sapiens, Jurkat, 20 h, TNF 10 ng/mL, intracellular ATP level, read-out: Cellular IC50 (M) Jurkat (FADD−/−)
property-label: IC50 (M)
Numbers only; they are read as M.

Tested on Jurkat (FADD−/−) cells, the item CN1C(=O)[C@@H](NC(=O)c2nnc(Cc3ccccc3)o2)COc2cc3occc3cc21 showed IC50 equal to 8.43e-10

Observed IC50 on Jurkat (FADD−/−) cells, entry CN1C(=O)[C@@H](NC(=O)c2n[nH]c(Cc3ccccc3F)n2)COc2ccc3ncccc3c21 , equals 1.74e-09

====

- Test system: Jurkat (FADD−/−) cells
- experimental-protocol: Inhibition of TNF-induced programmed Jurkat (FADD−/−) cell necrosis (Cell Titer-Glo)
- Type: cell-based, human
- study-conditions: Homo sapiens, Jurkat, 20 h, TNF 10 ng/mL, intracellular ATP level, read-out: Cellular IC50 (M) Jurkat (FADD−/−)
This section presents compounds with their documented log10 of IC50 values.
Note the log scale: values are log10 of IC50 expressed in M.

[[record]]
smiles_data = "CN1C(=O)[C@@H](NC(=O)c2cccc(Cc3ccccc3)c2)CSc2cc3[nH]ccc3cc21"
property_label = "log10 of IC50"
number = -6.47

[[record]]
smiles_data = "CN1C(=O)[C@@H](NC(=O)c2n[nH]c(Cc3ccccc3)n2)CSc2cc3[nH]ccc3cc21"
property_label = "log10 of IC50"
number = -8.86

[[record]]
smiles_data = "Cc1nc2cc3c(cc2[nH]1)OC[C@H](NC(=O)c1cccc(Cc2ccccc2)c1)C(=O)N3C"
property_label = "log10 of IC50"
number = -6.17


// next item, log10 of IC50 requested
// compound CN1C(=O)[C@@H](NC(=O)c2cn(Cc3ccccc3)nn2)COc2cc3[nH]c(C(F)(F)F)nc3cc21 , assay Jurkat (FADD−/−) cells, log10 of IC50 value: -7.51

====

- Tested on: Jurkat (FADD−/−) cells
- experimental-protocol: Inhibition of TNF-induced programmed Jurkat (FADD−/−) cell necrosis (Cell Titer-Glo)
- Assay type: cell-based, human
- study-conditions: Homo sapiens, Jurkat, 20 h, TNF 10 ng/mL, intracellular ATP level, read-out: Cellular IC50 (M) Jurkat (FADD−/−)
In this section we review reported IC50 values for a set of compounds.
Dear colleague, please return just the value in M, with no unit written.

Past entries and their recorded results:
[[record]]
smiles_data = "CN1C(=O)[C@@H](NC(=O)c2cn(Cc3ccccc3)cn2)COc2cc3[nH]nnc3cc21"
number = "7.31e-09"

[[record]]
smiles_data = "COc1ncnc2cc3c(cc12)N(C)C(=O)[C@@H](NC(=O)c1n[nH]c(Cc2cc(F)cc(F)c2)n1)CO3"
number = "6.9e-09"

[[record]]
smiles_data = "CN1C(=O)[C@@H](NC(=O)c2ncn(Cc3ccccc3)n2)COc2ccc3cnccc3c21"
number = "1.64e-10"


Form: compound = CN1C(=O)[C@@H](NC(=O)c2n[nH]c(Cc3c(F)cccc3F)n2)COc2cc3[nH]nnc3cc21 ; IC50 = 2.98e-07

Given item CN1C(=O)[C@@H](NC(=O)c2nnc(Cc3ccccc3)o2)COc2cc3nccnc3cc21 , the value recorded as its IC50 is 9.03e-09

====

compounds and their reported IC50
- System: Jurkat (FADD−/−) cells
- experimental-protocol: Inhibition of TNF-induced programmed Jurkat (FADD−/−) cell necrosis (Cell Titer-Glo)
- Type: cell-based, human
- study-conditions: Homo sapiens, Jurkat, 20 h, TNF 10 ng/mL, intracellular ATP level, read-out: Cellular IC50 (M) Jurkat (FADD−/−)
Express the result in M but write the number alone.

[[record]]
compound = "CN1C(=O)[C@@H](NC(=O)c2cn(Cc3ccccc3)nn2)CSc2cc3occc3cc21 [RIP1-040]"
test_target = "Jurkat (FADD−/−) cells"
endpoint_unit = "M"
number = "3.6e-10"

[[record]]
compound = "CN1C(=O)[C@@H](NC(=O)c2n[nH]c(Cc3cccc(F)c3)n2)COc2cc3nccnc3cc21 [RIP1-209]"
test_target = "Jurkat (FADD−/−) cells"
endpoint_unit = "M"
number = "1.92e-09"

[[record]]
compound = "CN1C(=O)[C@@H](NC(=O)c2nnc(Cc3cccc(F)c3)[nH]2)COc2cc3ocnc3cc21 [RIP1-217]"
test_target = "Jurkat (FADD−/−) cells"
endpoint_unit = "M"
number = "1.38e-09"

[[record]]
compound = "CN1C(=O)[C@@H](NC(=O)c2cc(Cc3ccccc3)on2)COc2cc3[nH]nnc3cc21 [RIP1-142]"
test_target = "Jurkat (FADD−/−) cells"
endpoint_unit = "M"
number = "1.86e-09"


Lab note: CN1C(=O)[C@@H](NC(=O)c2cc(Cc3ccccc3)on2)COc2ccc3cnccc3c21 [RIP1-111] gave IC50 of 1.16e-09

Note to self: IC50 recorded for CN1C(=O)[C@@H](NC(=O)c2nnc(Cc3ccccc3)o2)CSc2cc3[nH]ccc3cc21 [RIP1-041] was 3.79e-10

# IC50 of CN1C(=O)[C@@H](NC(=O)c2cc(Oc3ccccc3)ccn2)COc2ccc3cnccc3c21 [RIP1-178] = 3.23e-10

====

Quick reference: Ki of the listed items.
- test-target: human RIP1 (Homo sapiens)
- Construct: made in house; host or cells: Sf-9 insect cells
- Sequence (Q13546 whole entry): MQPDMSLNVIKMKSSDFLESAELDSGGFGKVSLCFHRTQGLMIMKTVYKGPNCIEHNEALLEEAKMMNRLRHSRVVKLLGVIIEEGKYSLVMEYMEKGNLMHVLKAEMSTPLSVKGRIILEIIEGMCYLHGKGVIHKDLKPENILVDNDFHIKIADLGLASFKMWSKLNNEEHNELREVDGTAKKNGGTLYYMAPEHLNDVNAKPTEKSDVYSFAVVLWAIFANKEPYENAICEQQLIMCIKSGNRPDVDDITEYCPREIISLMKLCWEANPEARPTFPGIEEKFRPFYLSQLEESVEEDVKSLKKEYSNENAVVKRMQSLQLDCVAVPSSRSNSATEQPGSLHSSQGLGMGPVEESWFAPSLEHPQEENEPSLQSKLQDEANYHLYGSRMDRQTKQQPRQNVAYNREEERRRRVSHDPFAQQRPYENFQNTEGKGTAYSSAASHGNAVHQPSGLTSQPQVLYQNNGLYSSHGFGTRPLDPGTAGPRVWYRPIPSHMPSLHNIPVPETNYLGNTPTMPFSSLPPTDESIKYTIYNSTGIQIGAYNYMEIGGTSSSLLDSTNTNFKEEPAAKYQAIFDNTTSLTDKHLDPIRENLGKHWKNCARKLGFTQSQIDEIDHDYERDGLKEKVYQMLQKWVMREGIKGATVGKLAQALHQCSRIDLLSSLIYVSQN
- experimental-protocol: Inhibition of ADP-Glo RIP1 kinase activity
- Format: biochemical
Give the quantity in nM, number only.

Consider the following illustrative entries.
[[record]]
smiles_data = "COc1ncnc2cc3c(cc12)N(C)C(=O)[C@@H](NC(=O)c1n[nH]c(Cc2ccccc2)n1)CO3"
test_target = "human RIP1 (Homo sapiens)"
property_label = "Ki"
number = 13.2

[[record]]
smiles_data = "CN1C(=O)[C@@H](NC(=O)c2cc(Cc3ccccc3)on2)COc2cc3[nH]nc(Cl)c3cc21"
test_target = "human RIP1 (Homo sapiens)"
property_label = "Ki"
number = 10.8

[[record]]
smiles_data = "Cc1nc2cc3c(cc2[nH]1)OC[C@H](NC(=O)c1cc(Cc2ccccc2)on1)C(=O)N3C"
test_target = "human RIP1 (Homo sapiens)"
property_label = "Ki"
number = 44

[[record]]
smiles_data = "CN1C(=O)[C@@H](NC(=O)c2ncn(Cc3ccccc3)n2)COc2cc3[nH]nc(Cl)c3cc21"
test_target = "human RIP1 (Homo sapiens)"
property_label = "Ki"
number = 20.3

[[record]]
smiles_data = "CN1C(=O)[C@@H](NC(=O)c2nnc(Cc3ccccc3)[nH]2)COc2cc3nccnc3cc21"
test_target = "human RIP1 (Homo sapiens)"
property_label = "Ki"
number = 21.5


Reported Ki for CN1C(=O)[C@@H](NC(=O)c2nnc(Cc3ccccc3)[nH]2)COc2cc3[nH]nc(Cl)c3cc21 was 6.35

Sample CN1C(=O)[C@@H](NC(=O)c2cc(Cc3ccccc3)on2)COc2cc3[nH]nnc3cc21 ; Ki observed: 19.1

Entry under test: CN1C(=O)[C@@H](NC(=O)c2cc(Cc3ccccc3)on2)COc2cc3[nH]ncc3cc21 . Its Ki was 10.3
